Tested on: HCT-116
Assay: Growth inhibition of human HCT116 cells
Format: functional
MEASURED_ENDPOINT: GI50
Your answer should be a number followed by the unit of measure.

Fill blank: measured GI50 of the compound `COc1cc(OC)cc(-n2n[n+](C)c3c2C(=O)c2ccccc2C3=O)c1.O=S(=O)([O-])C(F)(F)F` is ____.
2660 nM

Fill blank: measured GI50 of the compound `COc1ccc(-n2n[n+](C)c3c2C(=O)c2ccccc2C3=O)cc1OC.O=S(=O)([O-])C(F)(F)F` is ____.
1160 nM

Shifting focus to the compound that follows.
Fill blank: measured GI50 of the compound `COc1cc(-n2n[n+](C)c3c2C(=O)c2ccccc2C3=O)cc(OC)c1OC.O=S(=O)([O-])C(F)(F)F` is ____.
460 nM

* * *

Listing: GI50 of selected molecules
Tested on: SK-MEL-2
Experiment: Growth inhibition of human SK-MEL-2 cells
Assay type: functional
# value in nM; strip the unit string

Fill blank: measured GI50 of the molecule `C[n+]1nn(-c2ccc(C(F)(F)F)cc2)c2c1C(=O)c1ccccc1C2=O.O=S(=O)([O-])C(F)(F)F` is ____.
12500

Fill blank: measured GI50 of the molecule `C[n+]1nn(-c2ccc(F)cc2)c2c1C(=O)c1ccccc1C2=O.O=S(=O)([O-])C(F)(F)F` is ____.
2270

Fill blank: measured GI50 of the molecule `COc1ccc(-n2n[n+](C)c3c2C(=O)c2ccccc2C3=O)cc1OC.O=S(=O)([O-])C(F)(F)F` is ____.
1400

Fill blank: measured GI50 of the molecule `Cc1ccc(-n2n[n+](C)c3c2C(=O)c2ccccc2C3=O)cc1.O=S(=O)([O-])C(F)(F)F` is ____.
2170

Fill blank: measured GI50 of the molecule `COc1ccc(-n2n[n+](C)c3c2C(=O)c2ccccc2C3=O)cc1.O=S(=O)([O-])C(F)(F)F` is ____.
2050

Further cases:
Fill blank: measured GI50 of the molecule `COc1cc(-n2n[n+](C)c3c2C(=O)c2ccccc2C3=O)cc(OC)c1OC.O=S(=O)([O-])C(F)(F)F` is ____.
1750

Fill blank: measured GI50 of the molecule `C[n+]1nn(-c2ccccc2)c2c1C(=O)c1ccccc1C2=O.[Cl-]` is ____.
2180

src = ChEMBL document CHEMBL3232814
